Data credit: patent US20260130395A1

- Assay procedure: Stability of cannabinoid compounds and Vitamin E components in Beverage 1 (AB White) by LCMSMS
- Type: physicochemical
- Assay context: AB White stored at 21-25° C.; 330 days
Field: Stability of Plant-Derived Cannabinoid Compounds in AB White, 21-25° C.. Provide a value for each of the compounds that follow.
Field format: number, assumed µg/mL, no unit text.

## Input Look up Stability of Plant-Derived Cannabinoid Compounds in AB White, 21-25° C.: C=C(C)[C@@H]1CCC(C)=C[C@H]1c1c(O)cc(CCCCC)c(C(=O)O)c1O
## Output 1.72

## Input Same again, this time with CCCc1cc(O)c2c(c1)OC(C)(C)[C@@H]1CCC(C)=C[C@@H]21 [THCV, delta-9-tetrahydrocannabivarin]
## Output 3.55

## Input CCCCCc1cc(O)c2c(c1)OC(C)(C)[C@@H]1CCC(C)=C[C@@H]21 [D9 THC, delta-9-tetrahydrocannabinol, reference compound] , same question.
## Output 11.4

## Input Then CCCCCc1cc(O)c2c(c1)OC(C)(C)c1ccc(C)cc1-2 ?
## Output 2.75

## Input Same question, CCCCCc1cc2c(c(O)c1C(=O)O)[C@@H]1C=C(C)CC[C@H]1C(C)(C)O2 [D9 THCA, delta-9-tetrahydrocannabinolic acid] this time
## Output 0.894

====

- Assay procedure: Stability of cannabinoid entourage and Vitamin E components of the powder concentrate by LCMSMS
- Assay type: physicochemical
- Assay context: powder stored at 21-25° C.; 570 days
Would you kindly list Stability of Plant-Derived Cannabinoid Compounds in Powder Concentrate for each of these compounds?
Number in mg/g powder, nothing else.

## Input Need Stability of Plant-Derived Cannabinoid Compounds in Powder Concentrate of CCCCCc1cc2c(c(O)c1C(=O)O)[C@@H]1C=C(C)CC[C@H]1C(C)(C)O2 [D9 THCA, delta-9-tetrahydrocannabinolic acid] , thanks.
## Output 0.148

## Input What do you get for CCCCCc1cc(O)c2c(c1)OC(C)(CCC=C(C)C)C=C2 (centres unmarked) [CBC, cannabichromene] ?
## Output 0.069

## Input And then C=C(C)[C@@H]1CCC(C)=C[C@H]1c1c(O)cc(CCCCC)cc1O [CBD, cannabidiol, reference compound] , what is it?
## Output 5.85

## Input Do the same for CCCCCc1cc(O)c2c(c1)OC(C)(C)[C@@H]1CCC(C)=C[C@@H]21 [D9 THC, delta-9-tetrahydrocannabinol, reference compound] please
## Output 2.64

## Input Another compound: C=C(C)[C@@H]1CCC(C)=C[C@H]1c1c(O)cc(CCCCC)c(C(=O)O)c1O [CBDA, cannabidiolic acid]
## Output 0.408

====

- Assay procedure: Stability of cannabinoid compounds and Vitamin E components in Beverage 2 (AB Red) by LCMSMS
- Type: physicochemical
- Assay context: stored at 8° C., 480 days
Assay metric: Stability of Plant-Derived Cannabinoid Compounds in AB Red
Field note: include the unit after the figure.

## Input Endpoint output: Stability of Plant-Derived Cannabinoid Compounds in AB Red of CCCc1cc(O)c2c(c1)OC(C)(C)[C@@H]1CCC(C)=C[C@@H]21 [THCV, delta-9-tetrahydrocannabivarin] . Value?
## Output 3.05 µg/mL

## Input Repeat with CCCCCc1cc(O)c2c(c1)OC(C)(C)[C@@H]1CCC(C)=C[C@@H]21 [D9 THC, delta-9-tetrahydrocannabinol, reference compound]
## Output 12.2 µg/mL

## Input Continue with C=C(C)[C@@H]1CCC(C)=C[C@H]1c1c(O)cc(CCCCC)c(C(=O)O)c1O
## Output 1.60 µg/mL

## Input Ok, now C=C(C)[C@@H]1CCC(C)=C[C@H]1c1c(O)cc(CCC)cc1O
## Output 0.190 µg/mL

## Input What would you report for CCCCCc1cc(O)c2c(c1)OC1(C)CCC3C1C2C3(C)C (centres unmarked) ?
## Output 0.487 µg/mL
